target: PI3Kα H1047R (T47D cells) (Homo sapiens, UniProt P42336, H1047R); construct: endogenous in cells; host or cells: T47D cells; assay: PI3Kα cellular assay: pAKT HTRF in T47D cells after EGF stimulation; type: cell-based; conditions: selectivity T47D (H1047R) over SKBR3 (WT), pAKT HTRF
Sequence (P42336 whole entry H1047R): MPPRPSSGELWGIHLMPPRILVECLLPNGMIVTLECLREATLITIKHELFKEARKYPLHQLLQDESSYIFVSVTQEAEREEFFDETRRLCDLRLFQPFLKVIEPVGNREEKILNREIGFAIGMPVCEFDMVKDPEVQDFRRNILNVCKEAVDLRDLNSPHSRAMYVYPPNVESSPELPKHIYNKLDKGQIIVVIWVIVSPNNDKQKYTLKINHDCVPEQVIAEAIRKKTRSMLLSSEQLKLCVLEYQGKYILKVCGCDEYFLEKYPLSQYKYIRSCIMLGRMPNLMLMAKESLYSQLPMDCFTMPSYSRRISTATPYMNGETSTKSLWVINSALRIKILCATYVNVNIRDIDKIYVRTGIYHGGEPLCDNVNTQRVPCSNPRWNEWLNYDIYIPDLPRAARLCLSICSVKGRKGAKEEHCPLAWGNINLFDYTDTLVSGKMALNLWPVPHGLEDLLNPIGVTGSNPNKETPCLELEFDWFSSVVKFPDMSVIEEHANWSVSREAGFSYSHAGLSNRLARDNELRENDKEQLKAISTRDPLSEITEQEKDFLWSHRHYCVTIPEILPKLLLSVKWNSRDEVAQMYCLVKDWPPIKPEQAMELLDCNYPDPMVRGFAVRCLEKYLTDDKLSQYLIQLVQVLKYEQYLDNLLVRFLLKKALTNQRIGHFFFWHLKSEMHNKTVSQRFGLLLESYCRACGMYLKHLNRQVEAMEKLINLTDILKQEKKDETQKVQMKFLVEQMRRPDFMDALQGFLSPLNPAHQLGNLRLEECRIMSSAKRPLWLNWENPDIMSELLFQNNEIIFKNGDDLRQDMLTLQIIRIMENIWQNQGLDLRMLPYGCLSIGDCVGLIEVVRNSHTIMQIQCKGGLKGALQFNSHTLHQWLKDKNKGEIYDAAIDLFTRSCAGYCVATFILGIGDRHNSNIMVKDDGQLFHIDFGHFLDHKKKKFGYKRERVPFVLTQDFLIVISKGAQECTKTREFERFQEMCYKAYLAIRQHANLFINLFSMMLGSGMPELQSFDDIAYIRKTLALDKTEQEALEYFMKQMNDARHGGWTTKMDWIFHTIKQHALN
Sequence (P27986 whole entry partner): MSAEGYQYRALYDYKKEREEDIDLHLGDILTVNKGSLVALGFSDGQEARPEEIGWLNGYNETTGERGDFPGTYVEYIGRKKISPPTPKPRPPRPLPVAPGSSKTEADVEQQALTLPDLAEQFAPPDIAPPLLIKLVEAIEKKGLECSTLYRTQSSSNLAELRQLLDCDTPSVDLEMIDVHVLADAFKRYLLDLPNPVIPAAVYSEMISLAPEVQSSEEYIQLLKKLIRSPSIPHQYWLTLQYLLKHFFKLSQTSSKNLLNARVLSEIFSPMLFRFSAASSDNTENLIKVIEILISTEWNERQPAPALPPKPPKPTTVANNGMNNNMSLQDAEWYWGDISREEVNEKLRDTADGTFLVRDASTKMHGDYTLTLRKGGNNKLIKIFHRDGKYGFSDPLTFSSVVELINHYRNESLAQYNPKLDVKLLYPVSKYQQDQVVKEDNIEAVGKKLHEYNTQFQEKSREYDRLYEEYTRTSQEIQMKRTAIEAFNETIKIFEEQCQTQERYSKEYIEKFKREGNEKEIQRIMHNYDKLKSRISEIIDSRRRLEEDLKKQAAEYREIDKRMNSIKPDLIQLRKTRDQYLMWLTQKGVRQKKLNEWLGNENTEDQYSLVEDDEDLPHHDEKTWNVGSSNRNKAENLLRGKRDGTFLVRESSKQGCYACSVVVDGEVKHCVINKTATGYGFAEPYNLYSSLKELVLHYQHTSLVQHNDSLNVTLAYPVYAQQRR
Measurement kind: T47D pAKT S473 HTRF IC50 (H1047R): T47D (H1047R) selectivity over SKBR3 (WT)

Sample answers from the record:
Cc1cc(C(C)Nc2ccccc2C(=O)O)c2nc(-c3ccc4c(c3)c(N)nn4C)cc(=O)n2c1 (single isomer, unassigned) [Compound 535] :: C (C denotes ≤5-fold)
Cc1cc([C@H](C)Nc2ccccc2C(=O)O)c2nc(N3CCOC[C@H]3C)cc(=O)n2c1 :: A (A denotes >20-fold)
CC(Nc1ccccc1C(=O)O)c1cc(C#N)cn2c(=O)cc(N3CCOCC3)nc12 (centres unmarked) :: C (C denotes ≤5-fold)
Cc1cc([C@@H](C)Nc2cccc3[nH]c(=O)oc23)c2nc(N3CCOCC3)cc(=O)n2c1 :: C (C denotes ≤5-fold)

# context switch: different compound, same T47D pAKT S473 HTRF IC50 (H1047R): T47D (H1047R) selectivity over SKBR3 (WT)
Problem: Could you share which T47D pAKT S473 HTRF IC50 (H1047R): T47D (H1047R) selectivity over SKBR3 (WT) value was measured for Cc1cc(C(C)Nc2cccc3onc(O)c23)c2nc(-c3cccnc3)c(C)c(=O)n2c1 (centres unmarked) ?
Solution: A (A denotes >20-fold)

###

molecular target: PI3Kα H1047R (T47D cells) (Homo sapiens, UniProt P42336, H1047R); construct: endogenous in cells; host or cells: T47D cells; assay: PI3Kα cellular assay: pAKT HTRF in T47D cells after EGF stimulation; format: cell-based; conditions: selectivity T47D (H1047R) over SKBR3 (WT), pAKT HTRF
Measurement kind: T47D pAKT S473 HTRF IC50 (H1047R): T47D (H1047R) selectivity over SKBR3 (WT)

Sample answers from the record:
Cc1cc(C(C)Oc2ccccc2C2(O)CS(=O)(=O)C2)c2nc(-c3cccc(F)c3)c(C)c(=O)n2c1 (stereo not drawn) :: A (A denotes >20-fold)
Cc1cc(C(C)Nc2ccccc2C(=O)O)c2nc(N3CCC(C)(O)CC3)cc(=O)n2c1 (stereo not drawn) :: C (C denotes ≤5-fold)
Cc1cc([C@@H](C)Nc2cnncc2C(=O)O)c2nc(N3CCOCC3)cc(=O)n2c1 :: C (C denotes ≤5-fold)
Cc1cc(C(C)Nc2cc(F)ccc2C(=O)O)c2nc(-c3ccnc(C4CC4)c3)c(C)c(=O)n2c1 (stereo not drawn) :: A (A denotes >20-fold)

# context switch: different compound, same T47D pAKT S473 HTRF IC50 (H1047R): T47D (H1047R) selectivity over SKBR3 (WT)
Problem: T47D pAKT S473 HTRF IC50 (H1047R): T47D (H1047R) selectivity over SKBR3 (WT) of Cc1cc(C(C)Nc2cccc3onc(O)c23)c2nc(-c3cccc(F)c3)c(C)c(=O)n2c1 (stereo not drawn) [Compound 1356] on PI3Kα H1047R (T47D cells) (Homo sapiens, UniProt P42336, H1047R)?
Solution: A (A denotes >20-fold)

###

# IC50 annotations
target: PI3Kα H1047R (T47D cells) (Homo sapiens, UniProt P42336, H1047R); construct: endogenous in cells; host or cells: T47D cells; experiment: PI3Kα cellular assay: pAKT HTRF in T47D cells after EGF stimulation; assay type: cell-based; conditions: T47D cells (PI3Kα H1047R), pAKT S473 HTRF, EGF stimulation

Sample answers from the record:
Cc1cc([C@H](C)Nc2ccccc2S(N)(=O)=O)c2nc([C@H]3CCCN(CC(F)F)C3)c(C)c(=O)n2c1 :: < 100 nM
Cc1cc(C(C)Nc2ccccc2-c2ccnnc2)c2nc(N3Cc4ccccc4C3)cc(=O)n2c1 (centres unmarked) :: 100 to 500 nM
Cc1cc([C@@H](C)Nc2ccccc2C(=O)C(F)(F)F)c2nc(N(C)Cc3ccccc3)c(C)c(=O)n2c1 :: > 2000 nM
Cc1cc([C@@H](C)Nc2ccccc2S(=O)(=O)O)c2nc(-c3ccc(C4CC4)cc3)c(C3CC3)c(=O)n2c1 :: 100 to 500 nM

Problem: Could you share which IC50 value was measured for Cc1cc(C(C)Nc2ccccc2C(=O)O)c2nc(-c3c(C)ccc4c3cnn4C)cc(=O)n2c1 (centres unmarked) ?
Solution: > 2000 nM

###

target: PI3Kα H1047R (T47D cells) (Homo sapiens, UniProt P42336, H1047R); construct: endogenous in cells; host or cells: T47D cells; test: PI3Kα cellular assay: pAKT HTRF in T47D cells after EGF stimulation; type: cell-based; conditions: selectivity of T47D (H1047R) over SKBR3 (WT) pAKT IC50
Measurement kind: T47D pAKT S473 HTRF IC50 (H1047R): T47D (H1047R) selectivity over SKBR3 (WT)

Sample answers from the record:
Cc1cc(CCNc2ccc(F)cc2C(=O)O)c2nc(N3CCOCC3)cc(=O)n2c1 [Compound 806] :: C (C denotes ≤5-fold)
Cc1cc([C@H](C)Nc2ccccc2C(=O)O)c2nc(-c3cnc4c(c3)c(C)cn4C)c(C)c(=O)n2c1 [Compound 1053] :: C (C denotes ≤5-fold)
Cc1cc([C@@H](C)Nc2ccccc2C(=O)O)c2nc(-c3cccc(C(F)F)c3)c(C)c(=O)n2c1 [Compound 972] :: A (A denotes >20-fold)
Cc1cc([C@@H](C)Nc2ccccc2C(=O)O)c2nc(-c3ccc(C4CC4)nc3)c(C)c(=O)n2c1 (single isomer, unassigned) [Compound 973] :: A (A denotes >20-fold)

# context switch: different compound, same T47D pAKT S473 HTRF IC50 (H1047R): T47D (H1047R) selectivity over SKBR3 (WT)
Problem: T47D pAKT S473 HTRF IC50 (H1047R): T47D (H1047R) selectivity over SKBR3 (WT) of Cc1cc([C@H](C)Nc2ccccc2C(=O)O)c2nc(-c3ccc4c(c(N)nn4C)c3C)cc(=O)n2c1 [Compound 703] on PI3Kα H1047R (T47D cells) (Homo sapiens, UniProt P42336, H1047R)?
Solution: C (C denotes ≤5-fold)

###

target: PI3Kα H1047R (T47D cells) (Homo sapiens, UniProt P42336, H1047R); construct: endogenous in cells; host or cells: T47D cells; assay: PI3Kα cellular assay: pAKT HTRF in T47D cells after EGF stimulation; assay type: cell-based; settings: selectivity of T47D (H1047R) over SKBR3 (WT) pAKT IC50
Measurement kind: T47D pAKT S473 HTRF IC50 (H1047R): T47D (H1047R) selectivity over SKBR3 (WT)

Sample answers from the record:
Cc1cc(C(C)Nc2ccccc2)c2nc(N3Cc4ccccc4C3)cc(=O)n2c1 (stereo not drawn) :: C (C denotes ≤5-fold)
Cc1cc([C@@H](C)Nc2ccccc2C(=O)O)c2nc(-c3ccncc3)c(C)c(=O)n2c1 :: C (C denotes ≤5-fold)
Cc1cc([C@H](C)Nc2ccccc2-c2ccnnc2)c2nc(N3Cc4ccccc4C3)c(C3CC3)c(=O)n2c1 :: A (A denotes >20-fold)
Cc1cc(C(C)Nc2ccccc2-c2nnn[nH]2)c2nc(N3Cc4ccccc4C3)cc(=O)n2c1 (stereo not drawn) :: A (A denotes >20-fold)
Cc1cc([C@H](C)Nc2ccccc2-c2ccnnc2)c2nc(N3C[C@@H](C)O[C@@H](C)C3)cc(=O)n2c1 :: A (A denotes >20-fold)

Problem: Could you share which T47D pAKT S473 HTRF IC50 (H1047R): T47D (H1047R) selectivity over SKBR3 (WT) value was measured for Cc1cc([C@H](C)Nc2ccccc2C(=O)O)c2nc(-c3cnc4c(c3)c(C)c(C)n4C)c(C)c(=O)n2c1 ?
Solution: C (C denotes ≤5-fold)

Problem: Would you mind doing Cc1cc(C(C)Nc2ccccc2C(=O)O)c2nc(-c3ccc4c(n3)c(C)nn4C)c(C)c(=O)n2c1 (stereo not drawn) as well?
Solution: A (A denotes >20-fold)

Problem: Would you mind doing Cc1cc([C@H](C)Nc2ccccc2C(=O)O)c2nc(C3CCN(S(N)(=O)=O)CC3)cc(=O)n2c1 as well?
Solution: C (C denotes ≤5-fold)

###

biological target: PI3Kα H1047R (T47D cells) (Homo sapiens, UniProt P42336, H1047R); construct: endogenous in cells; host or cells: T47D cells; experiment: PI3Kα cellular assay: pAKT HTRF in T47D cells after EGF stimulation; type: cell-based; settings: T47D cells (PI3Kα H1047R), pAKT S473 HTRF, 1 hr compound, 20 ng/ml EGF 10 min
pIC50: −log10 of the molar value.
Measurement kind: pIC50

Sample answers from the record:
Cc1cc(C(C)Nc2ccccc2C(=O)O)c2nc(-c3ccc4[nH]nc(-c5ccccn5)c4c3)cc(=O)n2c1 (stereo not drawn) [Compound 304] :: < 5.70
Cc1cc(C(C)Nc2ccccc2C(=O)O)c2nc(-c3ccc4[nH]nc(-c5ccccn5)c4c3)cc(=O)n2c1 (stereo not drawn) [Compound 318] :: < 5.70
Cc1cc(C(C)Nc2cccc(F)c2C(=O)O)c2nc(N3CCOCC3)cc(=O)n2c1 (stereo not drawn) [Compound 287] :: < 5.70
Cc1cc(C(C)NC2=C(CC(=O)O)C=CCC2)c2nc(N3CCSCC3)cc(=O)n2c1 (stereo not drawn) [Compound 284] :: < 5.70
Cc1cc(C(C)Nc2ccccc2C(=O)O)c2nc(-c3cnc4[nH]nc(-c5ccccc5)c4c3)cc(=O)n2c1 (stereo not drawn) [Compound 351] :: < 5.70

Problem: Could you share which pIC50 value was measured for Cc1cc([C@@H](C)Nc2ccccc2C(=O)O)c2nc(-c3ccc4nc(CO)[nH]c4c3)cc(=O)n2c1 [Compound 488] ?
Solution: < 5.70

Problem: Would you mind doing Cc1cc([C@@H](C)Nc2ccccc2C(=O)O)c2nc([C@@H]3CCOC3)cc(=O)n2c1 [Compound 538] as well?
Solution: < 5.70

Problem: Would you mind doing Cc1cc([C@@H](C)Nc2ccccc2C(=O)O)c2nc(-c3ccc4sc(=O)[nH]c4c3)cc(=O)n2c1 (single isomer, unassigned) [Compound 593] as well?
Solution: > 7.00

Problem: Would you mind doing Cc1cc([C@H](C)Nc2ccccc2C(=O)O)c2nc(N3CCC(C)(C)CC3)cc(=O)n2c1 [Compound 362] as well?
Solution: < 5.70

Where these numbers come from: patent US20260132129A1
